System: Follistatin (Homo sapiens)
Assay Explanation: FST protein binding to printed compounds – biochemical, small-molecule microarray, 635/667 nm fluorescence, primary screen (AID 1132)
Test Context: 635 nm fluorescence, higher = more signal
Catalogue of compounds with associated composite z-score

Exercise: Recorded composite z-score for OB1C=CCC(CCc2ccccc2)O1 (centres undefined) with Follistatin (Homo sapiens), please?
Key: 0.0417

Exercise: Recorded composite z-score for C=CC[C@]1(C(N)=O)N=C(c2ccc(OCCCO)cc2)O[C@H]1c1ccccc1 with Follistatin (Homo sapiens), please?
Key: 0.482

====

Assay Explanation: probe aLAP1 signal on lysate-treated microarray – cell lysate, small-molecule microarray, COS7 lysate, primary screen (AID 1124);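 note: lysate comes from COS7 cells expressing LAP1 and is applied at 0.3 µg/mL; score merges spot fluorescence near 667 nm with signal-to-noise over triplicate slides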
Test Context: probe aLAP1, fluorescence, higher = more signal
Test Readout: composite z-score
Please respond with just the number, no unit label.

A selection of reference data follows.
>>> print(df.to_string())
                                   compound  quantitative_readout
0  CN1C(=O)C2C=CC(C(O)c3ccccc3)N(N3CCCCC3)C2C1=O (centres undefined)                 0.676
1  COCCCNC(=O)[C@@]1(Cc2ccccc2CN=[N+]=[N-])N=C(c2ccc(OCCCO)cc2)O[C@H]1c1ccccc1CN=[N+]=[N-]                 0.574
2  C=C(C)[C@@H]1CC=C(C(O)C2C=CC3C(=O)NC(=O)C3N2Nc2ccc(Cl)cc2Cl)CC1 (some centres undefined)                 0.708

Continue with the compound presented below.
Exercise: composite z-score for O=C1C2C=CC(C(O)c3ccc(-c4ccccc4)s3)N(Nc3ccccc3)C2C(=O)N1c1ccccc1 (centres undefined) ?
Key: 0.103

====

Assay Explanation: probe aInhba binding on compound microarray – biochemical, small-molecule microarray, 635/667 nm fluorescence, primary screen (AID 1148);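 note: score merges 667nm spot fluorescence with signal-to-noise for antibody binding to printed compounds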
Test Context: higher = more signal
Catalogue of molecules with associated composite z-score

A selection of reference data follows.
Molecule	Result
CC#CC(=O)Oc1ccc(Br)cc1C=CC(=O)OCC	0.248
O=C1C2C=CC(C(O)C=Cc3ccc([N+](=O)[O-])cc3)N(n3cnnc3)C2C(=O)N1Cc1ccccc1 (configuration not stated)	0.0589

Exercise: composite z-score for O=C1O[C@H](c2ccccc2)[C@H](c2ccccc2)N2[C@H]1[C@@H](C(=O)NC[C@H](O)c1ccccc1)[C@]1(C(=O)Nc3ccccc31)[C@H]2c1ccc(O)cc1 ?
Key: -0.128

====

System: Plasmodium falciparum Sir2 (PF13_0152, Sir2A)
Assay Explanation: Plasmodium falciparum Sir2A binding compounds – biochemical, small-molecule microarray, 635 nm fluorescence, primary screen (AID 1098);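 note: score merges spot fluorescence intensity with its signal-to-noise ratio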
Test Context: fluorescence 635 nm, higher = more signal
Test Readout: composite z-score
Please respond with just the number, no unit label.

>>> df
                                   molecule                                    system  quantitative_readout
0  COCCCNC(=O)[C@@]1(Cc2ccccc2CN=[N+]=[N-])N=C(c2ccc(OCCCO)cc2)O[C@H]1c1ccccc1CN=[N+]=[N-]  Plasmodium falciparum Sir2 (PF13_0152, Sir2A)                  1.25
1  COC(=O)[C@@]1(Cc2ccccc2)[C@H]2c3cc(C(=O)N4CCCC4)n(Cc4c(CO)[nH]cc(C)c4=O)c3C[C@H]2CN1C(=O)c1ccccc1  Plasmodium falciparum Sir2 (PF13_0152, Sir2A)                 0.893
2  NC(=O)N1C(=O)C2C(C1=O)C1C=C(CCCO)C2C(C2CC2)N1Cc1cc2c(cc1Br)OCO2 (configuration not stated)  Plasmodium falciparum Sir2 (PF13_0152, Sir2A)                -0.267
3  O=C(O)[C@H](Cc1ccccc1)n1cc(-c2ccccc2)nn1  Plasmodium falciparum Sir2 (PF13_0152, Sir2A)                0.0064
4  O=C(NC1CC1)[C@@H]1c2ccccc2C(=O)N(Cc2cc(F)cc(C(F)(F)F)c2)[C@H]1c1ccc(CO)cc1  Plasmodium falciparum Sir2 (PF13_0152, Sir2A)                  1.62
5  COCCCNC(=O)[C@@H]1c2ccccc2C(=O)N(Cc2ccccc2OC)[C@H]1c1ccc(CO)cc1  Plasmodium falciparum Sir2 (PF13_0152, Sir2A)                 0.342

Exercise: composite z-score for C=C(CCCC)C(=O)CC[C@@H](OC(C)=O)c1ccc(CO)o1 ?
Key: 1.24

Exercise: composite z-score for Cc1ccc(S[C@]2(C(=O)NCC(C)C)CC(=O)N(Cc3cc(C(F)(F)F)cc(C(F)(F)F)c3)[C@@H]2c2ccc(CO)cc2)cc1 ?
Key: 0.889

Exercise: composite z-score for COC(=O)[C@]1(CCC(=O)OC(C)(C)C)N=C(c2ccc(OCCCO)cc2)O[C@@H]1c1ccccc1 ?
Key: 1.37

Exercise: composite z-score for CC(C)NC(=O)[C@@H]1c2ccccc2C(=O)N(C(C)C)[C@H]1c1ccc(CO)cc1 ?
Key: -0.509

Exercise: composite z-score for CC(C)C(=C=CC[C@H](O)c1ccc(CO)o1)CCO ?
Key: 0.458

Exercise: composite z-score for C=CC[C@]1(C(=O)NCc2ccccc2)N=C(c2ccc(OCCCO)cc2)O[C@H]1c1ccccc1CN=[N+]=[N-] ?
Key: 1.51

Exercise: composite z-score for NCCCCCNC(=O)[C@H]1C[C@H]2C(=O)N[C@@H](Cc3ccccc3)C(=O)N2[C@H]1c1cccc(OCCO)c1 ?
Key: 0.0864

src = PubChem BioAssay
